Test system: P-gp (MDR1)
Assay: In vitro cell permeability / P-gp substrate assay
Conditions: pig, LLC-PK1, pH 7.4, Papp BA, LLC-MDR1, basolateral to apical, no inhibitor
readout: Papp B→A at 120 min, 30 nM (×10⁻⁶ cm/s)
Please respond with the number in ×10⁻⁶ cm/s and leave the unit unwritten.

Form: compound = C[C@H]1O[C@@H](O[C@H]2[C@@H](O)C[C@H](O[C@H]3[C@@H](O)C[C@H](O[C@H]4CC[C@@]5(C)[C@H](CC[C@@H]6[C@@H]5C[C@@H](O)[C@]5(C)[C@@H](C7=CC(=O)OC7)CC[C@]65O)C4)O[C@@H]3C)O[C@@H]2C)C[C@H](O)[C@@H]1O [3H-Digoxin, Digoxin, reference compound] ; Papp B→A at 120 min, 30 nM = 10.3
